Recorded values, source paper PMC6222853.

System: yeast α-glucosidase (Saccharomyces cerevisiae) | Read-out: pIC50
Sequence (P53341 whole entry): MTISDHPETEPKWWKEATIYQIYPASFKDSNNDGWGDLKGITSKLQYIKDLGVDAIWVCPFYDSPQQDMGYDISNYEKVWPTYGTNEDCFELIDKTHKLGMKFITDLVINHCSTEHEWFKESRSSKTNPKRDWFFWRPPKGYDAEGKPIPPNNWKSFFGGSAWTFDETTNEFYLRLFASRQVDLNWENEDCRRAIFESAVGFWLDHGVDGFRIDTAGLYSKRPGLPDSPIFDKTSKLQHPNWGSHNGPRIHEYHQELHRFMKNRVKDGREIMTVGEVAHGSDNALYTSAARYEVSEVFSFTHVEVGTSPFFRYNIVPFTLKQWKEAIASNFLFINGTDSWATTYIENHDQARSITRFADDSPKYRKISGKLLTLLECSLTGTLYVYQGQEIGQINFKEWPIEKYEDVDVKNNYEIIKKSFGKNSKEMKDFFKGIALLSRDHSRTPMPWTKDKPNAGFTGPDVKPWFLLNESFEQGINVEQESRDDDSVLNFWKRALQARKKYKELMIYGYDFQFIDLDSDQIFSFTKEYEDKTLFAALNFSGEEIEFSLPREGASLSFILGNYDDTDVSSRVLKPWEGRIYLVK
Quick note: pIC50 values are minus log10 of concentrations in mol/L.

CC(C)=CCC/C(C)=C/Cc1cc(C2CC(=O)c3c(O)cc(O)cc3O2)cc(O)c1O (centres unmarked); 5.29

Would you kindly share the measured pIC50 for `CC(C)=CCC/C(C)=C/Cc1cc([C@@H]2CC(=O)c3c(O)cc(O)cc3O2)ccc1O` ?
5.27

---

# IC50 per entry for egg albumin (Gallus gallus, UniProt P01012)
Just the number please, in µM, no unit attached.

Given the entry `CC(C)=CCC/C(C)=C/Cc1c(O)cc2c(c1O)C(=O)C[C@@H](c1ccc(O)c(O)c1)O2` , report its measured IC50.
0.26

Thanks! And `CC(C)=CCC/C(C)=C/Cc1cc([C@@H]2CC(=O)c3c(O)cc(O)cc3O2)ccc1O` ?
1.02

Another compound to check: `CC(C)=CCC/C(C)=C/Cc1c([C@@H]2CC(=O)c3c(O)cc(O)cc3O2)ccc(O)c1O`
0.54

Let us now turn to CC(C)=CCC/C(C)=C/Cc1cc(C2CC(=O)c3c(O)cc(O)cc3O2)cc(O)c1O (centres unmarked)
0.42

Quick one: `CC(C)=CCC/C(C)=C/Cc1c([C@@H]2CC(=O)c3c(cc(O)c(CC=C(C)C)c3O)O2)ccc(O)c1O`
0.37

---

Biological target: COX-2 (Mus musculus)
Construct: treated with 500 ng/mL LPS for the next 24 h to induce the production of COX-2; endogenous in cells
Sequence (Q05769 18-604): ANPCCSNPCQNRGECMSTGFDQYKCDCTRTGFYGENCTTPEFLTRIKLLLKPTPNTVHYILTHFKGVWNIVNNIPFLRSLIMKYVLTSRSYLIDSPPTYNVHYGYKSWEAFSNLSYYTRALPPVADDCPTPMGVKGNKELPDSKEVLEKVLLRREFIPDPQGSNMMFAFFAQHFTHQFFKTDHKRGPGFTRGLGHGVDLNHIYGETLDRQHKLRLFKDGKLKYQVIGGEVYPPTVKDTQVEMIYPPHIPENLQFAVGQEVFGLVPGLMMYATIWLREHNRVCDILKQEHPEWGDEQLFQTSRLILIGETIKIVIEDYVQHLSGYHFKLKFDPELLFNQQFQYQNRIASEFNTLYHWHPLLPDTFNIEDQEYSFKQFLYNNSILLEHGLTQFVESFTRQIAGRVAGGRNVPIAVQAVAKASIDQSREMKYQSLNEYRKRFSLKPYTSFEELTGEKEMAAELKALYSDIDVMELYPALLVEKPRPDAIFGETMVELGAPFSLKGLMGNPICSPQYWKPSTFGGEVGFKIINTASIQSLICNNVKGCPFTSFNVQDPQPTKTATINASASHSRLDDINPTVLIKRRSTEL
Test: Cell-based assay for COX-2 inhibition (PGE2 ELISA)
Conditions: LPS-induced RAW 264.7 cells, conversion of arachidonic acid to PGE2
ASSAY_ENDPOINT: IC50

Please review the entries below; each comes with its answer.
CC(C)=CCC/C(C)=C/Cc1cc(C2CC(=O)c3c(O)cc(O)cc3O2)cc(O)c1O (centres unmarked); 23.8 µM
CC(C)=CCC/C(C)=C/Cc1c([C@@H]2CC(=O)c3c(O)cc(O)cc3O2)ccc(O)c1O; 17.9 µM
CC(C)=CCC/C(C)=C/Cc1c([C@@H]2CC(=O)c3c(cc(O)c(CC=C(C)C)c3O)O2)ccc(O)c1O; 15.4 µM
CC(C)=CCC/C(C)=C/Cc1c(O)cc2c(c1O)C(=O)C[C@@H](c1ccc(O)c(O)c1)O2; 11.7 µM

We next turn to a different compound, shown below.
Form field - read-out: IC50; system: COX-2 (Mus musculus); submitted item: `CC(C)=CCC/C(C)=C/Cc1cc([C@@H]2CC(=O)c3c(O)cc(O)cc3O2)ccc1O`
24 µM

---

Target: electric eel AChE (Electrophorus electricus)
Sequence (O42275 24-633): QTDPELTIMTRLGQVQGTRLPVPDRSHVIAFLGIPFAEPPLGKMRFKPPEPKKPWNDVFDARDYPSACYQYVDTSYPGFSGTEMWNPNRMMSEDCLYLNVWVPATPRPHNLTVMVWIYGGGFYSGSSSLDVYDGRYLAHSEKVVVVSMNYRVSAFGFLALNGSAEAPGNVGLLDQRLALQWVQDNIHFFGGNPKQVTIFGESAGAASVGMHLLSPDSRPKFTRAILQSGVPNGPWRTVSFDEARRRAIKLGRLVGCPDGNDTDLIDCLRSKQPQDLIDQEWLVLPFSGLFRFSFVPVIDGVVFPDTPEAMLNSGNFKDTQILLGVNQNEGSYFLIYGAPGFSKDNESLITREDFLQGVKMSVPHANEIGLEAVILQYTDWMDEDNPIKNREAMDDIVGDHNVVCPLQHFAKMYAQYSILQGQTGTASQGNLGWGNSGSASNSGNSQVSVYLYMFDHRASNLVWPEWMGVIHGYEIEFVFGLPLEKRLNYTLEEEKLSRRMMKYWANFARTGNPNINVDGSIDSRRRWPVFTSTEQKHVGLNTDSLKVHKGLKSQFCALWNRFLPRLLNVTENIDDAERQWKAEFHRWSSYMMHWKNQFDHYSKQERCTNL
We begin with a simple list: items and their reported pIC50.
Note on pIC50: it is the negative log10 of concentration, concentration in mol/L.

# count of solved cases: 4
CC(C)=CCC/C(C)=C/Cc1c([C@@H]2CC(=O)c3c(O)cc(O)cc3O2)ccc(O)c1O; 4.82
CC(C)=CCC/C(C)=C/Cc1cc([C@@H]2CC(=O)c3c(O)cc(O)cc3O2)ccc1O; 4.91
CC(C)=CCC/C(C)=C/Cc1c([C@@H]2CC(=O)c3c(cc(O)c(CC=C(C)C)c3O)O2)ccc(O)c1O; 4.80
CC(C)=CCC/C(C)=C/Cc1c(O)cc2c(c1O)C(=O)C[C@@H](c1ccc(O)c(O)c1)O2; 5.11

# ---- query compound ----
API: value(readout= pIC50, system= electric eel AChE (Electrophorus electricus), query= CC(C)=CCC/C(C)=C/Cc1cc(C2CC(=O)c3c(O)cc(O)cc3O2)cc(O)c1O (centres unmarked) )
5.14

---

UniProt P53341 data, read-out pIC50
# pIC50 is unitless: minus log10 of the molar concentration; print number only

Worked cases, pIC50 given:
CC(C)=CCC/C(C)=C/Cc1c([C@@H]2CC(=O)c3c(O)cc(O)cc3O2)ccc(O)c1O; 5.25
CC(C)=CCC/C(C)=C/Cc1c([C@@H]2CC(=O)c3c(cc(O)c(CC=C(C)C)c3O)O2)ccc(O)c1O; 5.39

Now for another entry.
Give the reported pIC50 for `CC(C)=CCC/C(C)=C/Cc1c(O)cc2c(c1O)C(=O)C[C@@H](c1ccc(O)c(O)c1)O2` (system: UniProt P53341).
5.42
